These data points were gathered from a melting point compilation (Tetko et al.; mined from patent text by program, amines drawn as free bases though some values may be those of a salt).

# reported melting point; entries follow

Some molecules with recorded melting point:
O=C(O)COc1ccc2c(c1)-c1nc(S(=O)(=O)CC(c3ccccc3)c3ccccc3)sc1CC2 ... 183 to 185 °C
COc1ccc(C2CC(C(C)(C)C)=NN2c2ccc(C(=O)O)cc2)cc1 (stereo not given) ... 209 °C
FC1=CC2NC(=S)CCC2C=C1c1cccnc1 (stereo not given) ... 248 °C

Inquiry: Fill in: melting point of CC(C)(C)[S@](=O)N1CCC[C@H]1c1cccs1 is ___
Reply text: 125 to 130 °C

Inquiry: Query CCCOc1ccccc1OS(=O)(=O)NC(=O)Nc1nc(OC)cc(OC)n1 next
Reply text: 108 to 109 °C

Inquiry: Param item: COc1cc2[nH]c(N(C)Cc3cccc(C4=NCCN4C)c3)nc(=O)c2c(C)c1OC
Reply text: 145 to 148 °C

Inquiry: Also need c1ccc(COc2cc3cc(-c4ccccc4)[nH]c3cc2OCc2ccccc2)cc1 , thanks.
Reply text: 140 to 141 °C

----------
# Lookup of reported melting point keyed by entry

CN1CC[C@@H](c2c(O)cc(O)c3c(=O)cc(-c4ccc(N)cc4)oc23)[C@@H]1CO ... 172 to 174 °C
CCOC(=O)CNC(=O)NCc1cccc2c1C(=O)N(C1CCC(=O)NC1=O)C2=O (centres undefined) ... 187 to 189 °C
Nc1ncc(-c2noc(-c3cnn4c(C(F)(F)F)cc(-c5ccc(Cl)c(Cl)c5)nc34)n2)cn1 ... 300 °C
CC1CCN(c2c(-c3c(F)cc(F)cc3F)c(Cl)nc3nc(SCc4ccccc4)nn23)CC1 ... 147 °C
CN1CCN(c2cccc3ccc(-c4cccc(NS(C)(=O)=O)c4)cc23)CC1 ... 100 to 101 °C
COC(=O)C1(O/N=C(\C(=O)OC(c2ccccc2)c2ccccc2)c2csc(NC(c3ccccc3)(c3ccccc3)c3ccccc3)n2)CCCCC1 ... 180 to 182 °C

Inquiry: Report melting point for Cc1oc(-c2ccccc2)nc1COc1cccc(CO)c1 please.
Reply text: 101 to 102 °C

Inquiry: Another compound to check: N#Cc1ccc(N(Cc2ccc(Br)cc2)n2cnnc2)cc1-c1ccc(OS(N)(=O)=O)cc1
Reply text: 122 to 123 °C

Inquiry: Next compound: COc1cc(C(O)CCCCCCCCCCOCc2ccccc2)ccc1OCc1ccccc1 (centres undefined)
Reply text: 43 to 45 °C

----------
measurement_kind: melting point

Answered cases to consult:
Cc1ccc(N)cc1S(=O)(=O)Nc1onc(C)c1C ... 204 to 205 °C
CCOC(=O)c1cn(Cc2ccccc2)nc1OCc1ccc(OCc2nc(-c3ccccc3)oc2C)c(OC)c1 ... 154 to 155 °C
CN(C)Cc1ccc(CSCCNC(=O)NCCN(C)CCN(Cc2ccc(F)cc2)c2ccccn2)o1 ... 90 °C
c1cc(CCCn2ccnc2)cc(OCc2coc(-c3cccs3)n2)c1 ... 112 to 113 °C
c1ccc(COc2ccc([C@H]3CC[C@@H](NCCOc4ccccc4)CC3)cc2)cc1 ... 95 to 98 °C

Inquiry: Reported melting point for Clc1cccc(Oc2ncccc2Br)c1 : what is it?
Reply text: 88 to 90 °C

Inquiry: Quick one: CN(C)c1ccc(C(=CC(C=C(c2ccc(N(C)C)cc2)c2ccc(N(C)C)cc2)c2ccc(N(C)C)cc2)c2ccc(N(C)C)cc2)cc1
Reply text: 215 to 220 °C

Inquiry: And the next one, COc1cccc(Cc2nc3c(cnn3C(CCCc3ccccc3)C(C)O)c(=O)[nH]2)c1 (centres undefined) ?
Reply text: 54 °C

Inquiry: Would you kindly repeat that for Cc1cc(Cl)cc(C(=O)NC2(C)CS(=O)(=O)C2)c1NC(=O)c1cc(C(F)(F)F)nn1-c1ncccc1Cl ?
Reply text: 168 to 171 °C
